Hi there, I'd appreciate the recorded SPOT peptide array binding signal intensity for every entry that follows.
test.target: CaRvs167-3
assay: SPOT peptide array binding signal intensity (averaged, normalized) (arbitrary units (background-subtracted, floor 0; scale differs between SH3 domains)); higher = stronger binding of the SH3 domain to the peptide
I'd appreciate a reply containing only the number, no unit.

Q: Give reported SPOT peptide array binding signal intensity value for RSKRLFPVRPMATAH
A: 93.5

Q: Complete the entry with SPOT peptide array binding signal intensity for NLKKRPPTAPQRKIS
A: 67.8

Q: Tell me SPOT peptide array binding signal intensity reported for LLGRKRPVMERVVDI
A: 1.75
